Tested on: RXRa homodimer (NR concentration 180 nM)
Assay: PBM binding z-score (relative to random genomic background probes); higher = stronger binding; sequences stand for … in GC…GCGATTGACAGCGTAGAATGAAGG
For each record, write down the corresponding PBM binding z-score.
Kindly provide the number alone.

Ask: Return the recorded PBM binding z-score value; entry: CGTCAAAGTTAAAGGTAACGTAACAGAAAGCAGC
Reply: 0.816

Ask: Return the recorded PBM binding z-score value; entry: CGTCCAAGGTCAGAGAGGTCACTGAATGCCGAGT
Reply: 6.93

Ask: Return the recorded PBM binding z-score value; entry: CTATGTAGGTTAAGGGGGTCATTCATTTTGAAAG
Reply: 5.74

Ask: Return the recorded PBM binding z-score value; entry: CCTACTGGGCCAAAGGACATTGATTCCAATGCTC
Reply: 0.166

Ask: Return the recorded PBM binding z-score value; entry: GCTTACGGGTGAAAGGTTATAGCATGAATAGAAT
Reply: 4.95

Ask: Return the recorded PBM binding z-score value; entry: TAGCCTAGGTCATTCAGGGGCCAGAATAGAAAGC
Reply: 3.18

Ask: Return the recorded PBM binding z-score value; entry: CCTCGGAGGTCAGAAGGTCAGAGCTGTCCGCTTT
Reply: 6.44

Ask: Return the recorded PBM binding z-score value; entry: AATACAGGGTCCTCGTAGGCCAGAGTACGCACAG
Reply: 0.449

Ask: Return the recorded PBM binding z-score value; entry: CCTACTGGGCCACGAAAGGTAATTGATTCAGTGA
Reply: -0.00441

Ask: Return the recorded PBM binding z-score value; entry: CCGCGTAGGTTACGAGGGGGCATTCAGTGCGAAT
Reply: 2.28

Ask: Return the recorded PBM binding z-score value; entry: CAAACTAGGTCAAAGGTCAAAGTAGAGCCAACCA
Reply: 10.3

Ask: Return the recorded PBM binding z-score value; entry: ACTAGTTGGTCAGCTGAGGTCACACAAAATTCGG
Reply: 4.23

Ask: Return the recorded PBM binding z-score value; entry: AGTCAAAGTTCACGAGGTAACGTAAGATTCAGCT
Reply: 6.24

Ask: Return the recorded PBM binding z-score value; entry: CGAACTAGATCAAAGGACAGTGAAAGGCGACGTA
Reply: -0.0824

Ask: Return the recorded PBM binding z-score value; entry: ATATGTAGGTTACGGTCATTCAGAAAGTAGGGAA
Reply: 1.64

Ask: Return the recorded PBM binding z-score value; entry: CATAGTTGGTCAAGGTCACACACGCTATAGGTAC
Reply: 4.73

Ask: Return the recorded PBM binding z-score value; entry: TCGAGTAGGTTACGGGGGTATTCAGGGATGAAGA
Reply: 2.06

Ask: Return the recorded PBM binding z-score value; entry: CTATGTAGGTTAAGCGGGTCATTCAGTTTGAAAG
Reply: 3.17

Ask: Return the recorded PBM binding z-score value; entry: CGAACTAGTTCAAAGGACAGTGAAAGGCGACGTA
Reply: 0.848

Ask: Return the recorded PBM binding z-score value; entry: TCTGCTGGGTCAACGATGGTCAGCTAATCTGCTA
Reply: 2.58

Ask: Return the recorded PBM binding z-score value; entry: TCGAGTAGGTTACGGGGCCATTCAGGGATGAAGA
Reply: 1.06

Ask: Return the recorded PBM binding z-score value; entry: CGAACTAGGTCAAAGGACTGTGAAAGGCGACGTA
Reply: 2.93

Ask: Return the recorded PBM binding z-score value; entry: ATATGTAGGTTAGGTTCATTCAGAAAGTAGGGAA
Reply: 2.17

Ask: Return the recorded PBM binding z-score value; entry: ATACCAAGGTCATCGTGAGGTCGTTGATACTAAC
Reply: 6.49

Ask: Return the recorded PBM binding z-score value; entry: ATATGTAGGTTACATCGGGGTCATTCAGGCTATG
Reply: 6.42

Ask: Return the recorded PBM binding z-score value; entry: ATATGTAGGTTAGAGTCATTCAGAAAGTAGGGAA
Reply: 0.703

Ask: Return the recorded PBM binding z-score value; entry: CGTCCAAGGTCAATTCTAGGTCAGTGAAAGCATT
Reply: 4.75

Ask: Return the recorded PBM binding z-score value; entry: TAGCCTAAGTCATGGGCCAGTATACCACGCGAAC
Reply: 0.289

Ask: Return the recorded PBM binding z-score value; entry: AGTCAAATTTCATCTAGGTAACGTAAGATATGCT
Reply: 0.184

Ask: Return the recorded PBM binding z-score value; entry: ACTAGTTGTTCAGCTGAGGTCACACACAATTCGG
Reply: 4.16

Ask: Return the recorded PBM binding z-score value; entry: TCTGCTATGTCAACGATGGTCAGCTAATCTGCTA
Reply: -0.181

###

Test system: LXRb:RXRa (NR concentration 270 nM, RXRa partner concentration 90 nM)
Assay: PBM binding z-score (relative to random genomic background probes); higher = stronger binding; sequences stand for … in GC…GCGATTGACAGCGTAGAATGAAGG
property measured: PBM binding z-score
Kindly provide the number alone.

Ask: Return the recorded PBM binding z-score value; entry: CGTACTAGGTCACCAGGACAGTGAAGAGGTTGGA
Reply: 2.01

Ask: Return the recorded PBM binding z-score value; entry: ATATGTAGGATATCGGGTCATTCAGTTTGCGCAT
Reply: 2.02

Ask: Return the recorded PBM binding z-score value; entry: CGAACTAGGTCACGAGGACAGTGAAGAGGTTGGA
Reply: 1.98

###

For each record, write down the corresponding PBM binding z-score.
Test system: THRa:RXRa (NR concentration 90 nM, RXRa partner concentration 90 nM)
Assay: PBM binding z-score (relative to random genomic background probes); higher = stronger binding; sequences stand for … in GC…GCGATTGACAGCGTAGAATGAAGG
Kindly provide the number alone.

Ask: Return the recorded PBM binding z-score value; entry: CCTACTGGGCCAAAGGTCCTTGATTCCAATGCTC
Reply: -0.00931

Ask: Return the recorded PBM binding z-score value; entry: TAGCCTAGGTCATTCAGGGGCCAGTATGGAAAGC
Reply: 3.67

Ask: Return the recorded PBM binding z-score value; entry: CGTCGGAGGACAGAAGGTCAGAGCTGTCCGCTTT
Reply: 2.08

Ask: Return the recorded PBM binding z-score value; entry: CCGAGTAGGTTACGAAGGGGCATTCAGTGCGAAT
Reply: 2.26

Ask: Return the recorded PBM binding z-score value; entry: CCTACTGGGCCGAGGTCATTGATCAGTCAAAGCA
Reply: 3.52

Ask: Return the recorded PBM binding z-score value; entry: CGTCCAAGGTCATAGGAGGTCACTGAAGACAGAT
Reply: 5.37

Ask: Return the recorded PBM binding z-score value; entry: TCTCGGAGGACACGAAGGTCAGCGCTTTCCAGAG
Reply: 3.23

Ask: Return the recorded PBM binding z-score value; entry: GCTATTAGGTGAAAGGGCAACCGAATGATTCTCG
Reply: 2.04

###

Tested on: RARb homodimer (NR concentration 270 nM)
Assay: PBM binding z-score (relative to random genomic background probes); higher = stronger binding; sequences stand for … in GC…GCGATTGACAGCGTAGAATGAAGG
Think of 4 as a floor: if PBM binding z-score stands on it or above, it is 1.0; beneath it, 0.0.

Ask: Could you please find out whether CCTACTGGGCCAAAGGTCATTGACTCCAATGCTC has PBM binding z-score that meets 4 or exceeds it?
Reply: 1.0

Ask: Could you please find out whether ATATGTAGGTCAGCTGGGGTCATTCAGACTAGGC has PBM binding z-score that meets 4 or exceeds it?
Reply: 1.0

Ask: Could you please find out whether TAGCCTAGGTCATTGGGCCAGTATAGTACGCATC has PBM binding z-score that meets 4 or exceeds it?
Reply: 0.0

Ask: Could you please find out whether CCTTACGGGTCTAGGTTATAGCACGGGTGGTACG has PBM binding z-score that meets 4 or exceeds it?
Reply: 0.0

Ask: Could you please find out whether AGTCAAAGTTCATCAAGGTAACGTAAGATATGCT has PBM binding z-score that meets 4 or exceeds it?
Reply: 0.0

###

Test system: PPARg:RXRa 30nM:10nM, anti-RXR (NR concentration 30 nM, RXRa partner concentration 10 nM)
Assay: PBM binding z-score (relative to random genomic background probes); higher = stronger binding; sequences stand for … in GC…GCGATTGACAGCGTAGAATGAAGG
For each record, write down the corresponding PBM binding z-score.
Kindly provide the number alone.

Ask: Return the recorded PBM binding z-score value; entry: ATATGTAGGTTCGGGTCATTCAGAAAGTAGGGAA
Reply: 1.6

Ask: Return the recorded PBM binding z-score value; entry: CCGAGTAGGTTACGAGGGGGGATTCAGTGCGAAT
Reply: 1.57

Ask: Return the recorded PBM binding z-score value; entry: CTATGTAGGTTAAGGGGGTCCTTCAGTTTGAAAG
Reply: 4.47

Ask: Return the recorded PBM binding z-score value; entry: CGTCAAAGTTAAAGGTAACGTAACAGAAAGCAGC
Reply: 0.527

Ask: Return the recorded PBM binding z-score value; entry: TTACCGAGGTGAAAGGTCGTTGATGCACGCCTTG
Reply: 7.84
